Experiment: Solubility limit of honokiol in polymerase buffer
Format: physicochemical
outcome.measure: solubility (µM)
Expressed in µM, but write only the number.

**Query** Query: solubility; subject: C=CCc1ccc(O)c(-c2ccc(O)c(CC=C)c2)c1
**Result** 200

---

Biological target: DNA polymerase I from E. coli (Klenow fragment), Kf(exo-) (Escherichia coli, UniProt P00582, D355A/E357A)
Experiment: Steady-state primer extension assay, Kf
outcome.measure: IC50
Put your answer as a value accompanied by its unit after it.

**Query** Query: IC50; subject: C=CCc1ccc(O)c(-c2ccc(O)c(CC=C)c2)c1
**Result** 80 µM

---

Target: DNA polymerase I from E. coli (Klenow fragment), Kf(exo-) (Escherichia coli, UniProt P00582, D355A/E357A)
Assay: Steady-state primer extension assay, Kf
outcome.measure: Ki (µM)
Expressed in µM, but write only the number.

**Query** Query: Ki; subject: C=CCc1ccc(O)c(-c2ccc(O)c(CC=C)c2)c1 [HNL]
**Result** 26
